These measurements were taken from patent US20040170644A1.

Target: T1, HLA-DRB4*0101 molecule (human)
T1 chain 1: not shown
T1 chain 2: not shown
Test: competition ELISA vs biotin-E2/E168
ENDPOINT LABEL: pIC50
Scale note: pIC50 = -log10(concentration in M).

*Q* # pIC50 lookup, item QQLLRREVYDFAFRD (modifications not checked) [E6 42-56]
*A* 7.26

*Q* # pIC50 lookup, item PTLHEYMLDLQPETT (modifications not checked) [E7 6-20]
*A* 6.70

*Q* # pIC50 lookup, item TLHEYMLDLQPETTDLYCYEQ (modifications not checked) [E7(7-27)]
*A* 6.43

*Q* # pIC50 lookup, item MHGDTPTLHEYMLDLQPETT (modifications not checked) [E7(1-20)]
*A* 8.40

*Q* # pIC50 lookup, item MGTLGIVCPICSQKP (modifications not checked) [E7 84-98]
*A* 5.76
